Parameter AC50: see the listing below.
Tested on: MYB mRNA
method notes: Splicing RT-qPCR assay, MYB canonical (CJ) and alternative (AJ) junction mRNA
Assay type: cell-based, human
applied conditions: Homo sapiens, 24 h, A673 or K562 cells, 24 hours compound treatment, RT-qPCR; read-out: MYB AJ (AC50, increase in alternative junction mRNA)
Structures can show the parent of a compound that is named as a salt.

Query block: Item under review: "CCn1cc2c(OC3CCNCC3)ccc(C(=O)Nc3cc(F)c4nc(C)cn4c3)c2n1" . Reported AC50?
Result block: 0.1 to 1 µM

New cases:
Query block: Item under review: "Cc1cn2cc(NC(=O)c3ccc(N4CCNCC4)c4cn(C)nc34)cc(Cl)c2n1" . Reported AC50?
Result block: < 0.1 µM

Query block: Also Cc1cn2cc(NC(=O)c3ccc(N4CCNCC4)c4cn(C5CCOCC5)nc34)cc(F)c2n1 [Compound 304, trifluoroacetic acid salt] , if possible.
Result block: 0.1 to 1 µM

Query block: Also "CCN[C@@H]1CCN(c2ccc(C(=O)Nc3cc(F)c4nc(C)cn4c3)c3nn(C)cc23)C1" , if possible.
Result block: < 0.1 µM
